Source listed as PubChem BioAssay (NCI).

- Test system: M14 melanoma
- ASSAY_NOTES: NCI-60 one-dose screen, 48 h
- CONDITION_CONTEXT: 10 µM unless noted
- Description: Growth inhibition of the M14 human tumor cell line is measured as a screen for anti-cancer activity. Cells are grown in 96 well plates and exposed to the test compound for 48 hours. Compounds are tested at a single concentration, which is 10^-5 M for most compounds. The reported endpoint is percent growth (GI% or GIPRCNT), where numbers from 0 - 100% represent growth inhibition, and numbers from -100% - 0 represent cell death. For example, a value of 40 represents 60% growth inhibition. […]
This is part of a sample that, as a whole, favours compounds with a hit. Of some 83,000 tested, about 20% had one in any assay. Active and inactive are the calls of the source. Rule for the calls: active = growth percent below 10; inactive = the rest.
Hello, when you answer, please use one of the following outcomes: YES = active, NO = inactive

# lookup: test call for Nc1cc(N)ncn1
NO

# lookup: test call for CC(C)C(=O)OCCOc1ccc(C(C)(C)C)cc1
NO

# lookup: test call for OCC1OC(n2ccc3c2ncn2ncnc32)C(O)C1O (stereo unspecified)
NO

# lookup: test call for NC(=O)OCCO
NO

# lookup: test call for CC(=O)OC/C(C)=C\CC(C)COC(C)=O (stereo unspecified)
NO

# lookup: test call for Nc1cc2c(cc1Cl)C(=O)c1ccccc1C2=O
NO

# lookup: test call for CN(C)c1ncnc2c1cnn2C
NO

# lookup: test call for NNC(=O)N/N=C1\C(=O)N(c2nccs2)C(=O)C(=O)C1c1nc2ccccc2s1 (stereo unspecified)
NO

# lookup: test call for CN(C)c1ccc(O)c2c1CC1CC3C(N(C)C)C(=O)C(C(N)=O)=C(O)C3(O)C(=O)C1=C2O (stereo unspecified)
NO

# lookup: test call for Cc1cc2c(C(C)C)c(O)c(O)c(C=Nc3ccccc3[N+](=O)[O-])c2c(O)c1-c1c(C)cc2c(C(C)C)c(O)c(O)c(C=Nc3ccccc3[N+](=O)[O-])c2c1O
NO

# lookup: test call for CN(C)Cc1ccccn1
NO

# lookup: test call for COc1ccc(Nc2cc(Cl)ccc2C(=O)O)cn1
NO

# lookup: test call for Clc1ccc(/C=C/c2ccccn2)cc1
NO

# lookup: test call for CCOC(C=O)OCC
NO

# lookup: test call for S=c1nc(-c2ccccn2)c(-c2ccccn2)n[nH]1
NO

# lookup: test call for CC(=O)NC(CCc1ccc(Cl)c(Cl)c1)c1cccc(O)c(=O)c1 (stereo unspecified)
YES

* * *

- Test system: SW-620 colon
- ASSAY_NOTES: NCI-60 one-dose screen, 48 h (100 = growth as untreated, 0 = no growth, -100 = all killed)
- CONDITION_CONTEXT: 10 µM unless noted
This is part of a sample that, as a whole, favours compounds with a hit. Of some 83,000 tested, about 20% had one in any assay.
Exercise: for every item that follows, state its recorded growth.
Express the result in % but write the number alone.

Specify measured growth for Nc1ccc2ccccc2c1-c1c(N)ccc2ccccc12 .
24.3

Specify measured growth for Cc1ccc(N2C(=O)c3cccc4c(N)c(S(=O)(=O)O)cc(c34)C2=O)cc1 .
109

Specify measured growth for COc1ccc(C2CC(c3ccccc3)=Nc3ccccc3S2)cc1 (stereo unspecified) .
98.4

Specify measured growth for COc1cccc(N=CNc2cccc(OC)c2)c1 .
98.5

Specify measured growth for Cc1ccc(S(N)(=O)=O)cc1Cl .
114

Specify measured growth for O=C(O)C1CSC(c2ccccc2)N1 (stereo unspecified) .
95.2

Specify measured growth for CCOC(=O)c1c(C)[nH]c(C)c1C=O .
97.9

Specify measured growth for CCCC(=O)CC(=O)c1ccccc1 .
105

Specify measured growth for CN=S(=O)(OCCCCCOS(=O)(=NC)c1ccc(C)cc1)c1ccc(C)cc1 (stereo unspecified) .
84.9

Specify measured growth for Oc1ccc(CCC2CCNc3ccccc32)cc1 (stereo unspecified) .
97.2

Specify measured growth for Cc1cc(Cc2ccccc2)c(O)c(Cc2ccccc2)c1 .
102

Specify measured growth for O=C(O)CC1=CCCCC1 .
98.2

Specify measured growth for CCC(=O)Oc1c(C)cc(O)c2ccccc12 .
103

Specify measured growth for NNc1ncnc2c1ncn2C1OC(CO)C(O)C1O (stereo unspecified) .
21.4

Specify measured growth for Nc1ccn(C2CC(N)C(CO)O2)c(=O)n1 (stereo unspecified) .
88.8

Specify measured growth for O=C1C=C(c2ccccc2)C(O)(c2ccccc2)C1 (stereo unspecified) .
108

Specify measured growth for CCOC(=O)c1ccc(Nc2sc(C(=O)c3ccc(Br)cc3)c(N)c2C#N)cc1 .
25.6

Specify measured growth for Cc1ccc(C)c2c1CCC2=O .
93.5

Specify measured growth for O=S(=O)(O)c1cccc2cccnc12 .
94.6

Specify measured growth for CSCC[C@@H]1C(=O)N(C)[C@H](C(C)(C)C)N1C(=O)c1ccccc1 .
102

Specify measured growth for O=c1n(CC2CO2)c(=O)n(CC2CO2)n1CC1CO1 (stereo unspecified) .
66.3

* * *

- System: T-47D breast
- ASSAY_NOTES: NCI-60 one-dose screen, 48 h (100 = growth as untreated, 0 = no growth, -100 = all killed)
- CONDITION_CONTEXT: 10 µM unless noted
This is part of a sample that, as a whole, favours compounds with a hit. Of some 83,000 tested, about 20% had one in any assay. Calls of active or inactive are those of the source. How the source made its calls: active means growth percent below 10; inactive means the rest.
VALUE_TYPE: growth

Specify measured growth for CCOC(=O)C(COS(C)(=O)=O)(COS(C)(=O)=O)C(=O)OCC .
103% (inactive)

Specify measured growth for CN(C)c1ccc(O)c2c1CC1CC3C(N(C)C)C(=O)C(C(N)=O)=C(O)C3(O)C(=O)C1=C2O (centres undefined) .
50.5% (inactive)

Specify measured growth for CCOC(=O)/C(C)=C\c1ccc(OC)c(OC)c1 .
90.2% (inactive)

Specify measured growth for CCNC(=O)Oc1ccc[nH]c1=O .
86.1% (inactive)

Specify measured growth for COc1ccc(C(=O)C(=O)c2ccccc2)cc1 .
104% (inactive)

Specify measured growth for C/C(O)=C(/C=N\C(=S)Nc1ccc(S(=O)(=O)Nc2nccs2)cc1)C(=O)Nc1ccccc1C .
90.2% (inactive)

Specify measured growth for Cn1c(=O)c2nc3c(=O)n(C)c(=O)n(C)c3nc2n(C)c1=O .
91.1% (inactive)

Specify measured growth for Nc1c(O)c(S(=O)(=O)O)c(O)c2c1C(=O)c1ccccc1C2=O .
23.5% (inactive)

Specify measured growth for CN1CCN(C(=S)S)CC1 .
93% (inactive)

Specify measured growth for CCOC(=O)C(C#N)=C1CCN(C)CC1 .
106% (inactive)

Specify measured growth for COc1cc(OC)c2cc(C(=O)c3ccc(C#N)cc3)c(=O)oc2c1 .
88.2% (inactive)

Specify measured growth for O=C1C=C(c2ccccc2)C(O)(c2ccccc2)C1 (centres undefined) .
90.6% (inactive)

Specify measured growth for O=[N+]([O-])c1ccc(-c2nc(N(CCO)CCO)c3ccccc3n2)o1 .
8.21% (active)

Specify measured growth for OCc1cccnc1 .
106% (inactive)

Specify measured growth for CCCCCC/C=C\CCCCCCCCCc1cc(O)cc(OC)c1O .
-61.8% (active)

Specify measured growth for COC(=O)Cc1cc(COC(C)=O)ccc1C .
110% (inactive)

Specify measured growth for O=C1C=CC(=O)C2=C1CCCC2 .
85.3% (inactive)

Specify measured growth for CC1CN(CCO)CC(C)O1 (centres undefined) .
93% (inactive)

Specify measured growth for C=COC(=O)C(C)(C)C .
93.8% (inactive)

* * *

- Test system: RXF 393 renal
- ASSAY_NOTES: NCI-60 one-dose screen, 48 h (100 = growth as untreated, 0 = no growth, -100 = all killed)
- CONDITION_CONTEXT: 10 µM unless noted
This is part of a sample that, as a whole, favours compounds with a hit. Of some 83,000 tested, about 20% had one in any assay.
VALUE_TYPE: growth (%)
Express the result in % but write the number alone.

Specify measured growth for CCCNS(=O)(=O)c1ccc(Cl)cc1 .
114

Specify measured growth for COc1cccc(C(=O)NNC(=O)c2cccc3ccccc23)c1 .
115

Specify measured growth for C=C1CC2(OC1=O)C(=O)N(C)c1ccc(I)cc12 (stereo not drawn) .
-73.4

* * *

- Test system: IGROV1 ovarian
- ASSAY_NOTES: NCI-60 one-dose screen, 48 h
- CONDITION_CONTEXT: 10 µM unless noted
The panel holds about 83,000 compounds, 20% with a hit somewhere; the sample as a whole holds those more often. Activity calls are given as the source filed them. The calls were made as follows: active = growth percent below 10; inactive = the rest.
Hello, when you answer, please use one of the following outcomes: 1 (active), 0 (inactive)

# lookup: test call for O=C(OCc1ccccc1)n1nnc2ccccc21
0

# lookup: test call for Cc1ccc(C)c(CCO)c1
0

# lookup: test call for Cc1c(Cl)cccc1N=C=S
0

# lookup: test call for CCC(C)C1CCC(O)CC1 (stereo not drawn)
0

# lookup: test call for C=C(OC(C)=O)c1ccccc1
0

# lookup: test call for CC(=O)C1C(=O)C(=O)N(c2ccc(Cl)c(Cl)c2)C1=O (stereo not drawn)
0

# lookup: test call for NCCCN1CCCC1=O
0

# lookup: test call for O=C1C=CC(=O)C2=C1CCCC2
0

# lookup: test call for CC(=O)c1cccs1
0

# lookup: test call for Cc1ccc(C)c(CN(C)C)c1O
0

# lookup: test call for Cc1nc(O)cc(=O)[nH]1
0

# lookup: test call for Nc1cc2c(cc1Cl)C(=O)c1ccccc1C2=O
0

# lookup: test call for CC(=O)c1cccc(O)c1
0

# lookup: test call for CC(=O)OCC1OC(n2cnc3c(=S)nc(N)[nH]c32)C(OC(C)=O)C1OC(C)=O (stereo not drawn)
0

# lookup: test call for Cc1ccc2nc(-c3ccc(N=Cc4ccccc4O)cc3)sc2c1
0

# lookup: test call for CC(=O)N(CCCCCCN(C(C)=O)C(C)=O)C(C)=O
0

# lookup: test call for CCOP(=O)(OCC)/C(=C\N1C(=O)CC(=O)NC1=S)C(=O)OC
0

# lookup: test call for COc1cc(OC)c(NC(=O)C(Sc2nc(C)cc(C)c2C#N)c2ccccc2)cc1Cl (stereo not drawn)
0

# lookup: test call for O=C(O)CC1=CCCCC1
0

# lookup: test call for COC1=C(OC)C(=O)C(SC/C=C(\C)CCCC(C)CCCC(C)CCCC(C)C)=CC1=O (stereo not drawn)
1

# lookup: test call for Nc1ncnc(Nc2ccc(C(F)(F)F)cc2)n1
0

# lookup: test call for CC(C)(C)CC1(C)NC(=O)NC1=O (stereo not drawn)
0

# lookup: test call for Cc1cc2nc(C)c(C)nc2cc1C
0

# lookup: test call for OCCOc1ccc(-c2cc(-c3ccccn3)nc(-c3ccccn3)c2)cc1
1

# lookup: test call for CC1CN(CCO)CC(C)O1 (stereo not drawn)
0

# lookup: test call for Nc1cc(N)ncn1
0

# lookup: test call for COc1ccc2c(ccc[n+]2C)c1
0

# lookup: test call for COc1ccc(C(=O)C(=O)c2ccccc2)cc1
0

# lookup: test call for COc1cccc(C(=O)NNC(=O)c2cccc3ccccc23)c1
0

# lookup: test call for Nc1ncnc(Nc2ccccc2)n1
0

# lookup: test call for O=C1C=C(c2ccccc2)C(O)(c2ccccc2)C1 (stereo not drawn)
0

# lookup: test call for O=C1Nc2ccccc2/C1=C\c1ccccc1O
0

# lookup: test call for OCCNc1ccccc1
0

# lookup: test call for CCCCNc1ccc(-c2ccc(NCCCC)cc2)cc1
0

# lookup: test call for COc1cc(-c2ccc(NC(=O)CC(C)=O)c(OC)c2)ccc1NC(=O)CC(C)=O
0

# lookup: test call for CC(C)(CC(=O)O)CC(=O)O
0

# lookup: test call for N#C/C(=C\NC(=S)N=Nc1c(O)[nH]c2ccccc12)c1nc2ccccc2s1
0

# lookup: test call for C=COC(=O)C(C)(C)C
0

# lookup: test call for OC(CCN1CCCCC1)(c1ccccc1)c1ccccc1
0

# lookup: test call for Cc1ccc(Cc2ccc(C)cc2)cc1
0

# lookup: test call for Cc1ccc(N)c(S(=O)(=O)O)c1
0

# lookup: test call for CC(=O)NC(CCC(=O)c1ccccc1)C(=O)O (stereo not drawn)
0

# lookup: test call for NNC(=O)c1ccccc1N
0

# lookup: test call for O=C1NCC2CCCC1C2 (stereo not drawn)
0

# lookup: test call for Nc1ccn(C2CC(N)C(CO)O2)c(=O)n1 (stereo not drawn)
0

# lookup: test call for CCCCN(C(=O)CC)c1ccccc1
0

# lookup: test call for CC1(c2ccccc2)CO1 (stereo not drawn)
0

# lookup: test call for CCCCCCCCCc1ccc(OC(C)=O)cc1
0
